format: in vitro ADME, Human; conditions: clearance in hepatocytes
Hepatocyte Human: recorded values
Please reply with the bare figure in %Qh and do not write the unit itself.

Below, each entry is followed by its recorded Hepatocyte Human result.
>  <item_smiles>
CO[C@H](c1ccccc1)[C@@H]1NC(=O)[C@H](C)NC(=O)[C@H](C[C@@H](C)CO)N(C)C(=O)[C@H](Cc2cn(Cc3cn(CCOCCn4cc(Cn5cc(C[C@@H]6NC(=O)[C@H](C(C)C)NC(=O)[C@H](CC(C)C)N(C)C(=O)[C@H](C(C)C)NC(=O)[C@H]([C@H](OC)c7ccccc7)NC(=O)[C@H](C)NC(=O)[C@H](C[C@@H](C)CO)N(C)C6=O)c6ccccc65)nn4)nn3)c3ccccc23)NC(=O)[C@H](C(C)C)NC(=O)[C@H](CC(C)C)N(C)C(=O)[C@H](C(C)C)NC1=O

>  <reading_unit>
%Qh

>  <Hepatocyte Human>
12

$$$$
>  <item_smiles>
CO[C@H](c1ccc(OCc2cn(CCCCCn3cc(COc4ccc([C@@H](OC)[C@@H]5NC(=O)[C@H](C)NC(=O)[C@H](C[C@@H](C)CO)N(C)C(=O)[C@H](Cc6cn(C)c7ccccc67)N(C)C(=O)[C@H](C(C)C)NC(=O)[C@H](CC(C)C)N(C)C(=O)[C@H](C(C)C)NC5=O)cc4)nn3)nn2)cc1)[C@@H]1NC(=O)[C@H](C)NC(=O)[C@H](C[C@@H](C)CO)N(C)C(=O)[C@H](Cc2cn(C)c3ccccc23)N(C)C(=O)[C@H](C(C)C)NC(=O)[C@H](CC(C)C)N(C)C(=O)[C@H](C(C)C)NC1=O

>  <reading_unit>
%Qh

>  <Hepatocyte Human>
12

$$$$

// moving on: another record for Hepatocyte Human
In: State its Hepatocyte Human: "CO[C@H](c1ccccc1)[C@@H]1NC(=O)[C@H](C)NC(=O)[C@H](C[C@@H](C)CO)N(C)C(=O)[C@H](Cc2cn(C)c3ccccc23)N(C)C(=O)[C@H](Cc2cn(CCCCCn3cc(C[C@@H]4NC(=O)[C@H](CC(C)C)N(C)C(=O)[C@H](C(C)C)NC(=O)[C@H]([C@H](OC)c5ccccc5)NC(=O)[C@H](C)NC(=O)[C@H](C[C@@H](C)CO)N(C)C(=O)[C@H](Cc5cn(C)c6ccccc56)N(C)C4=O)nn3)nn2)NC(=O)[C@H](CC(C)C)N(C)C(=O)[C@H](C(C)C)NC1=O"
Out: 12

###

Microsomal Stability Mice: recorded values
assay type: in vitro ADME, Mice; conditions: clearance in microsomes
*1 amine or outer side, *2 acyl side, *3 side chain or, on linkers, in order; H or OH if unused. Where a SMILES comes first, the peptide text is derived from it. [ ]: non-standard residue; d: D form. X1 = C#CCn1cc(C[C@H](N[*:1])C(=O)[*:2])c2ccccc21; NMeLeu(5-OH,4R) = CN[C@@H](C[C@@H](C)CO)C(=O)O; Phe(βR-OMe) = CO[C@H](c1ccccc1)[C@H](N)C(=O)O; Trp(1-Me) = Cn1cc(C[C@H](N)C(=O)O)c2ccccc21; NMeL = CN[C@@H](CC(C)C)C(=O)O

>  <molecule>
CO[C@H](c1ccccc1)[C@@H]1NC(=O)[C@H](C)NC(=O)[C@H](C[C@@H](C)CO)N(C)C(=O)[C@H](Cc2cn(C)c3ccccc23)NC(=O)[C@H](CCC(=O)N(C)C)NC(=O)[C@H](CC(C)C)N(C)C(=O)[C@H](C(C)C)NC1=O [SI-74] (cyclo(A[Phe(βR-OMe)]V[NMeL]E(NMe2)[Trp(1-Me)][NMeLeu(5-OH,4R)]))

>  <Microsomal Stability Mice>
84 %Qh

$$$$
>  <molecule>
COC(c1ccccc1)C1NC(=O)C(C)NC(=O)C(CC(C)CO)N(C)C(=O)C(Cc2cn(CC=CCn3cc(CC4NC(=O)C(C(C)C)NC(=O)C(CC(C)C)N(C)C(=O)C(C(C)C)NC(=O)C(C(OC)c5ccccc5)NC(=O)C(C)NC(=O)C(CC(C)CO)N(C)C4=O)c4ccccc43)c3ccccc23)NC(=O)C(C(C)C)NC(=O)C(CC(C)C)N(C)C(=O)C(C(C)C)NC1=O (stereo not drawn)

>  <Microsomal Stability Mice>
< 24 %Qh

$$$$

// moving on: another record for Microsomal Stability Mice
In: State its Microsomal Stability Mice: C#CCn1cc(C[C@@H]2NC(=O)[C@H](C(C)C)NC(=O)[C@H](CC(C)C)N(C)C(=O)[C@H](C(C)C)NC(=O)[C@H](Cc3ccccc3)NC(=O)[C@H](C)NC(=O)[C@H](C[C@@H](C)CO)N(C)C2=O)c2ccccc21 [SI-72] (cyclo(AFV[NMeL]V[X1][NMeLeu(5-OH,4R)]))
Out: > 88 %Qh

###

test: Microsomal stability, human; format: in vitro ADME; conditions: Human
*1 amine or outer side, *2 acyl side, *3 side chain or, on linkers, in order; H or OH if unused. Where a SMILES comes first, the peptide text is derived from it. [ ]: non-standard residue; d: D form. X5 = C=CCn1cc(C[C@@H](C(=O)[*:2])N(C)[*:1])c2ccccc21; X1 = C#CCn1cc(C[C@H](N[*:1])C(=O)[*:2])c2ccccc21; NMeLeu(5-OH,4R) = CN[C@@H](C[C@@H](C)CO)C(=O)O; Phe(βR-OMe) = CO[C@H](c1ccccc1)[C@H](N)C(=O)O; Trp(1-Me) = Cn1cc(C[C@H](N)C(=O)O)c2ccccc21; NMeL = CN[C@@H](CC(C)C)C(=O)O; Pra = C#CC[C@H](N)C(=O)O
Microsomal Stability Human QH: recorded values

>  <compound>
C#CC[C@@H]1NC(=O)[C@H](CC(C)C)N(C)C(=O)[C@H](C(C)C)NC(=O)[C@H]([C@H](OC)c2ccccc2)NC(=O)[C@H](C)NC(=O)[C@H](C[C@@H](C)CO)N(C)C(=O)[C@H](Cc2cn(C)c3ccccc23)NC1=O [Compound 10] (cyclo(A[Phe(βR-OMe)]V[NMeL][Pra][Trp(1-Me)][NMeLeu(5-OH,4R)]))

>  <Microsomal Stability Human QH>
>88.400%

$$$$
>  <compound>
COC(c1ccccc1)C1NC(=O)C(C)NC(=O)C(CC(C)CO)N(C)C(=O)C(Cc2cn(CC=CCn3cc(CC4NC(=O)C(C(C)C)NC(=O)C(CC(C)C)N(C)C(=O)C(C(C)C)NC(=O)C(C(OC)c5ccccc5)NC(=O)C(C)NC(=O)C(CC(C)CO)N(C)C4=O)c4ccccc43)c3ccccc23)NC(=O)C(C(C)C)NC(=O)C(CC(C)C)N(C)C(=O)C(C(C)C)NC1=O (centres unmarked)

>  <Microsomal Stability Human QH>
<24.400%

$$$$
>  <compound>
CO[C@H](c1ccccc1)[C@@H]1NC(=O)[C@H](C)NC(=O)[C@H](C[C@@H](C)CO)N(C)C(=O)[C@H](Cc2cn(C)c3ccccc23)NC(=O)[C@H](CCC(=O)N(C)C)NC(=O)[C@H](CC(C)C)N(C)C(=O)[C@H](C(C)C)NC1=O [SI-74] (cyclo(A[Phe(βR-OMe)]V[NMeL]E(NMe2)[Trp(1-Me)][NMeLeu(5-OH,4R)]))

>  <Microsomal Stability Human QH>
85.000%

$$$$

In: State its Microsomal Stability Human QH: C#CCn1cc(C[C@@H]2NC(=O)[C@H](C(C)C)NC(=O)[C@H](CC(C)C)N(C)C(=O)[C@H](C(C)C)NC(=O)[C@H]([C@H](OC)c3ccccc3)NC(=O)[C@H](C)NC(=O)[C@H](C[C@@H](C)CO)N(C)C2=O)c2ccccc21 [Compound 5] (cyclo(A[Phe(βR-OMe)]V[NMeL]V[X1][NMeLeu(5-OH,4R)]))
Out: >88.400%

In: State its Microsomal Stability Human QH: C=CCn1cc(C[C@H]2C(=O)N(C)[C@@H](C[C@@H](C)CO)C(=O)N[C@@H](C)C(=O)N[C@@H]([C@H](OC)c3ccccc3)C(=O)N[C@@H](C(C)C)C(=O)N(C)[C@@H](CC(C)C)C(=O)N[C@@H](C(C)C)C(=O)N2C)c2ccccc21 [SI-60] (cyclo(A[Phe(βR-OMe)]V[NMeL]V[X5][NMeLeu(5-OH,4R)]))
Out: >88.400%

###

assay: in vivo; format: in vivo, BALB/cAnNCrl mice; details: male, BALB/cAnNCrl, mouse, in vivo, iv, 1.062 umol/kg, iv bolus, mice, Mean
*1 amine or outer side, *2 acyl side, *3 side chain or, on linkers, in order; H or OH if unused. Where a SMILES comes first, the peptide text is derived from it. [ ]: non-standard residue; d: D form. X1 = C#CCn1cc(C[C@H](N[*:1])C(=O)[*:2])c2ccccc21; NMeLeu(5-OH,4R) = CN[C@@H](C[C@@H](C)CO)C(=O)O; Phe(βR-OMe) = CO[C@H](c1ccccc1)[C@H](N)C(=O)O; NMeL = CN[C@@H](CC(C)C)C(=O)O
quantity: half-life

In: State its half-life: C#CCn1cc(C[C@@H]2NC(=O)[C@H](C(C)C)NC(=O)[C@H](CC(C)C)N(C)C(=O)[C@H](C(C)C)NC(=O)[C@H]([C@H](OC)c3ccccc3)NC(=O)[C@H](C)NC(=O)[C@H](C[C@@H](C)CO)N(C)C2=O)c2ccccc21 [Compound 5] (cyclo(A[Phe(βR-OMe)]V[NMeL]V[X1][NMeLeu(5-OH,4R)]))
Out: 1 h
